These entries and their values trace back to a melting point compilation (Tetko et al.; mined from patent text by program, amines drawn as free bases though some values may be those of a salt).

Each item that follows carries a reported melting point.

| molecule | melting point |
| --- | --- |
| CN(C)C(=O)N(SC(N)=S)c1ccccc1 | 185 to 188 °C |
| CCCCOP(=O)(Cc1cc(C(C)(C)C)c(O)c(C(C)(C)C)c1)Cc1cc(C(C)(C)C)c(O)c(C(C)(C)C)c1 | 133 to 135 °C |
| CCCCCCCCC(=O)N1C(=O)CCC1=O | 59 to 60 °C |
| CCCCOC(=O)c1cc2cccc(O)c2[nH]1 | 150 to 151 °C |

# input for lookup
Q: Dear colleague, I am looking for the recorded melting point of the following compound: "CCCC(=O)N(CC)c1cccc(-c2ccc3nnc(C)n3n2)c1"
Ans: 127 to 129 °C

====

test_readout: melting point

Past entries and their recorded results:
| compound | test_readout | result |
| --- | --- | --- |
| COC(=O)C(=C(C)C)N1CC(N2C(=O)c3ccccc3C2=O)C1=O (configuration not stated) | melting point | 127 to 128 °C |
| CCC(=O)c1cc(Cl)c(Cl)c2c1OCC(CO)O2 (configuration not stated) | melting point | 121 to 123 °C |
| Cc1sc(N)nc1-c1ccc(CCN2CCN(c3cccc4ccccc34)CC2)cc1 | melting point | 160 to 165 °C |

Q: Value lookup for melting point; key = CCC1COC(c2ccc(C#N)c(F)c2)OC1 (configuration not stated)
Ans: 49 °C

Q: # lookup: melting point of "O=C(O)CSC(c1ccccc1)c1ccccc1"
Ans: 126 to 129 °C

Q: Entry under review: "CCOC(=O)c1ccc(NS(C)(=O)=O)c(N)c1" . Reported melting point?
Ans: 151 °C

Q: Consider the compound "CNC(=C[N+](=O)[O-])NCc1cnc(Cl)s1" and give its measured melting point.
Ans: 181 °C

Q: Need melting point of "COc1cc(-c2oc3ccccc3c(=O)c2C(=O)O)cc(OC)c1OC" , thanks.
Ans: 260 to 262 °C

Q: // melting point lookup, key: "CCOC(=O)C=Cc1ccc(C=Cc2ccc(Br)cc2)cc1"
Ans: 167 °C

Q: Form field: reported melting point of "COc1cc(C(=O)N2CCCCc3cc(Cl)ccc32)ccc1NC(=O)N(C)C"
Ans: 230 to 232 °C

Q: Could you share which melting point value was measured for "CCn1c(=O)c2cc(C(=O)O)cn2c2cc(Cl)ccc21" ?
Ans: 322 to 326 °C

Q: Requested read-out: melting point. Entry: "COc1ncnc(-c2cc(NS(C)(=O)=O)c(Cl)cc2Cl)c1C#N"
Ans: 160 to 162 °C

Q: Entry "COC(=O)C=CCc1cc(C=CC(=O)OC(C)(C)C)cc(Cc2cccnc2)c1" : reported melting point = ?
Ans: 91 to 93 °C

Q: Which melting point value belongs to O=C1C(=O)c2ccccc2C2=C1SCC(COc1cccnc1)O2 (configuration not stated) ?
Ans: 153 to 155 °C

Q: Bench note: what melting point did "CN(Cc1ccc(CCn2cnc3cc(-c4ccc(Cl)cc4)sc3c2=O)cc1)C(=O)CCl" show?
Ans: 162 to 165 °C

Q: Reported melting point for "Cc1cc(C)n2nc(C)cc2n1" : what is it?
Ans: 70 to 73 °C

Q: Any idea what its melting point is? The compound is CS(=O)(=O)NCC1CC2C=CC1C2 (configuration not stated)
Ans: 60 to 62 °C

Q: Give the measured melting point of Cc1cccc2c1nc(COc1ccc(Cl)cc1)n2CCC(C)C(=O)NNCc1ccccc1 (racemic) .
Ans: 145 to 146 °C

Q: Name the reported melting point value associated with the compound CS(=O)c1[nH]ccc1[N+](=O)[O-] (configuration not stated)
Ans: 162 to 164 °C

Q: Quick check: melting point of "Cc1cc(=O)n2c3c(cc(C(O)(C(F)(F)F)C(F)(F)F)cc13)CCC2" ?
Ans: 295 to 296 °C

Q: Quick one: melting point of COc1cc(N)c(Cl)cc1C(=O)N[C@H]1CCN(CCO)C[C@H]1OC (relative stereo) ?
Ans: 153 °C

Q: Value lookup for melting point; key = COc1cc2c(c(OC)c1)C1CCCCC1C(=O)C2 (configuration not stated)
Ans: 130 to 131 °C
